Data provenance: PubChem BioAssay (NCI)

# Test system: OVCAR-4 ovarian
# METHOD DESCRIPTION: NCI-60 one-dose screen, 48 h (100 = growth as untreated, 0 = no growth, -100 = all killed)
# CONDITION SUMMARY: 10 µM unless noted
The panel holds about 83,000 compounds, 20% with a hit somewhere; the sample as a whole holds those more often.
MEASUREMENT NAME: growth (%)
Numbers only here, please. The scale is %.

Recorded results for 3 molecules are shown here.
>>> observed_result("CC1=NN(C2=NC(=O)C(CC(=O)Nc3ccccc3C(F)(F)F)S2)C(c2ccc(N(C)C)cc2)C1 (configuration not stated)")
47.5
>>> observed_result("FC(F)(F)c1cc2c(Cl)ncnc2n1CCC1CCOCC1")
-16.5
>>> observed_result("O=C(Nc1ccc(-c2ccc3c(c2)NC(=O)/C3=C\\c2ccc[nH]2)cc1)Nc1ccc(Cl)c(C(F)(F)F)c1")
28.9

Data request: // Input: Nc1nn2c(-c3cc4cc(Br)ccc4oc3=O)ccnc2c1N=Nc1ccccc1 . Output its growth only.
Data returned: -5.33

Data request: Output measured growth for this item: O=C1Nc2ccccc2/C1=C\c1ccc(OCC(=O)c2ccc(Br)cc2)cc1
Data returned: 58.2

Data request: Output measured growth for this item: COC(=O)c1c(C(=O)OC)c2c3ccccc3c3ccccc3n2c1C(=O)C(C)(C)C
Data returned: 57.6

Data request: Tell us which growth value is on record for Cc1cccc(NCC(=O)N2CCN(c3ncnc4c3cnn4-c3ccccc3)CC2)c1
Data returned: 51.6

Data request: Supply measured growth of C=CC(=O)N1CCN(c2ccc3nc4c(nc3c2C(F)(F)F)C(=O)c2ncccc2C4=O)CC1 in your reply.
Data returned: -96.4

Data request: Hello, please tell me recorded growth for this one: Cn1cc(-c2cc(N)n3nc(-c4c[nH]c5ccc(Cl)cc45)cc3n2)c2cccnc21
Data returned: -42

###

# Test system: SNB-75 CNS
# METHOD DESCRIPTION: NCI-60 one-dose screen, 48 h
# CONDITION SUMMARY: 10 µM unless noted
About 83,000 compounds went through this panel and 20% of them were active in at least one assay; those are over-represented in the sample as a whole. The source made the active and inactive calls. Rule for the calls: active = growth percent below 10; inactive = the rest.
Choose the fitting class; nothing outside active, inactive is accepted.

>>> assigned_class("N/C(=N\\c1nc2ccc([N+](=O)[O-])cc2s1)NC(=O)Nc1ccccc1Cl")
"inactive"
>>> assigned_class("COc1ccc(C(=O)c2cc(C(C)=O)c3c(C)cc(C)cn23)cc1")
"active"
>>> assigned_class("Cc1nc(N)ncc1-c1ccc2ncnc(N3CCc4cc(F)c(Cl)cc43)c2c1")
"inactive"
>>> assigned_class("COc1ccc(NC(=O)NN2C(=O)c3ccccc3N(C)C2c2ccc(OC)cc2)cc1 (stereo unspecified)")
"inactive"
>>> assigned_class("COc1ccc(N=Nc2c(N)nn3c(-c4ccc([N+](=O)[O-])cc4)ccnc23)cc1")
"inactive"
>>> assigned_class("O=C1Nc2cc(-c3ccc(NS(=O)(=O)c4ccc(-c5ccccc5)cc4)cc3)ccc2/C1=C/c1ccc[nH]1")
"inactive"
>>> assigned_class("Cc1cc(C2(c3cc(C)c(OCC(O)CNc4c(C)n(C)n(-c5ccccc5)c4=O)cc3C(C)C)OC(=O)c3ccccc32)c(C(C)C)cc1OCC(O)CNc1c(C)n(C)n(-c2ccccc2)c1=O (stereo unspecified)")
"inactive"
>>> assigned_class("COc1cccc2nc(Nc3cccc(NC(=O)c4ccc(CN5CCN(C)CC5)c(C(F)(F)F)c4)c3)ccc12")
"active"

Data request: Tell me the assay call for Cc1cnc2ccc(Oc3ccccc3-c3ccccc3)nn12 please.
Data returned: inactive

Data request: State the result this test recorded for COc1cc(C2CC(c3ccc(C(F)(F)F)cc3)=Nc3c(N)nc(N)nc3N2)ccc1Oc1nc(Nc2ccc(F)cc2)nc(N(C)C)n1 (stereo unspecified) .
Data returned: inactive

Data request: What did this assay record as the result for C#CCCCNCCNc1ccnc2cc(Cl)ccc12 ?
Data returned: inactive

Data request: What did this assay record as the result for COc1ccc(-c2cc(C(=O)OCc3ccc(Br)cc3)nn2-c2ccc(S(C)(=O)=O)cc2)cc1OC ?
Data returned: inactive

Data request: For this compound, state the assay outcome: COc1ccc(-c2cc(-c3cc(OC)c(OC)c(OC)c3)[nH]c(=O)c2C#N)cc1
Data returned: active

Data request: What is the recorded call for this compound in the test? Nc1nn2c(-c3cc4ccccc4oc3=O)ccnc2c1N=Nc1ccccc1
Data returned: inactive

Data request: Hi, do you know how Cc1ccc(C(=O)Nc2cc(-c3ccncc3)cc(C(F)(F)F)c2)cc1C#Cc1cnc2cccnn12 came out in this test?
Data returned: inactive

Data request: // return assay outcome for O=C(NNC(=O)c1ccc(OCc2nc3ccc(Cl)cc3[nH]2)cc1)Nc1ccc(Cl)c(C(F)(F)F)c1
Data returned: inactive

Data request: Just curious, what result did CC(C)(C)c1cc(-c2cc(-c3ccccc3)[nH]c(=O)c2C#N)cc(C(C)(C)C)c1 get here?
Data returned: active

Data request: Recorded call for CC1=C(C)C(=O)C(NCCN2CCOCC2)=C(Br)C1=O ?
Data returned: inactive

Data request: Per the assay record, what outcome was assigned to Cc1ccc(C(=O)Nc2cc(-n3cnc(F)c3)cc(C(F)(F)F)c2)cc1C#Cc1cnc2cccnn12 ?
Data returned: inactive

###

# Test system: OVCAR-5 ovarian
# METHOD DESCRIPTION: NCI-60 one-dose screen, 48 h
# CONDITION SUMMARY: 10 µM unless noted
The panel holds about 83,000 compounds, 20% with a hit somewhere; the sample as a whole holds those more often. Calls of active or inactive are those of the source. How the source made its calls: active means growth percent below 10; inactive means the rest.
Outcome (select one): class 1 (active), class 0 (inactive)

// known answers, use as guide
>>> assigned_class("O=c1[nH]c2ccccc2cc1CSc1ccccc1Nc1nccc(-c2ccc3c(c2)OCO3)n1")
"class 0"
>>> assigned_class("O=C(O)CC1S/C(=N/N=C/c2nc3ccccc3s2)NC1=O (centres undefined)")
"class 0"
>>> assigned_class("COc1sc(/C=N/NC(=O)c2[nH]c3ccc(Br)cc3c2-c2ccccc2)cc1Br")
"class 1"
>>> assigned_class("CCN1CCN(Cc2ccc(C(=O)Nc3cccc(Nc4ccc5c(OC)cccc5n4)c3)cc2C(F)(F)F)CC1")
"class 1"
>>> assigned_class("N#C/C(=C1/C(=O)Nc2ccccc21)c1nnc(NC(=O)c2ccc(-n3c(=O)[nH]c4ccccc4c3=O)cc2)s1")
"class 0"
>>> assigned_class("Cc1ccc(N=Nc2c(N)nn3c(-c4cc5cc(Br)ccc5oc4=O)ccnc23)cc1")
"class 0"
>>> assigned_class("COc1ccccc1Nc1nnc(-c2c[nH]c3ccccc23)o1")
"class 0"
>>> assigned_class("COc1ccc(-c2nnc3c(/C=C/c4ccc(Br)cc4)nc4ccccc4n23)cc1")
"class 0"
>>> assigned_class("COc1ccc(Nc2nnc(-c3c[nH]c4ccccc34)o2)cc1")
"class 0"
>>> assigned_class("Cc1ccc(C(=O)Nc2cc(-c3ccccc3)cc(C(F)(F)F)c2)cc1C#Cc1cnc2cccnn12")
"class 0"

Please look at the following molecule next.
Data request: Dear all, I need the recorded test outcome for Nc1nnc(-c2cncc(Br)c2)c(-c2c[nH]c3ccc(Cl)cc23)n1 , thank you.
Data returned: class 0

###

# System: PC-3 prostate
# METHOD DESCRIPTION: NCI-60 one-dose screen, 48 h (100 = growth as untreated, 0 = no growth, -100 = all killed)
# CONDITION SUMMARY: 10 µM unless noted
# Method: Growth inhibition of the PC-3 human tumor cell line is measured as a screen for anti-cancer activity. Cells are grown in 96 well plates and exposed to the test compound for 48 hours. Compounds are tested at a single concentration, which is 10^-5 M for most compounds. The reported endpoint is percent growth (GI% or GIPRCNT), where numbers from 0 - 100% represent growth inhibition, and numbers from -100% - 0 represent cell death. For example, a value of 40 represents 60% growth inhibition. […]
Compounds without any hit were thinned out: in the full panel of roughly 83,000, 20% have a hit.
MEASUREMENT NAME: growth (%)
// return numeric value only (unit: %, not printed)

>>> observed_result("COc1ccc(-c2nc3ccccc3n2CC(=O)N=Nc2c(O)[nH]c3ccc(OC)cc23)cc1")
64.8
>>> observed_result("COc1ccc(NC(=O)Cn2c(/C=C/c3ccc([N+](=O)[O-])cc3)nc3ccccc3c2=O)cc1")
89.7
>>> observed_result("Clc1ccc2c(NCCNC34CC5CC(CC(C5)C3)C4)ccnc2c1")
-5.27

Data request: Name the recorded growth of the item COc1ccc(NC(=O)Cn2c(/C=C/c3cccc(OC)c3)nc3ccccc3c2=O)cc1 in your answer.
Data returned: 73.9

Data request: Indicate the recorded growth value for this molecule: Cn1cc(-c2cc(N)n3nc(-c4c[nH]c5ccc(F)cc45)cc3n2)c2cc(Br)cnc21
Data returned: 53.8
